Target: anti-CD28 Fab (SEQ ID NOs: 202, 203)
Sequence (VH, as listed by the source, chain 1 of 2): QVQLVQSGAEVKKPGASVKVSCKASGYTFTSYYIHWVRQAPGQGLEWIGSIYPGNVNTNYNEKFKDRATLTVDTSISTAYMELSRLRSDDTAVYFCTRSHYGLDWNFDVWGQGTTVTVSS
Sequence (VL, as listed by the source, chain 2 of 2): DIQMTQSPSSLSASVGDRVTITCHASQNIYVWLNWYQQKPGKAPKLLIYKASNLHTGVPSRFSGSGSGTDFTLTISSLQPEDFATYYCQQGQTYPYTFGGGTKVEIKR
Experiment: phage ELISA, Fab on plate;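 also: ELISA of crude clonal phage supernatants on the plate, wells preloaded with CD28 antigen or only blocking buffer, captured phage read out via HRP-linked anti-M13 antibody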
observed_property: Anti-CD28 Fab signal
Give bare numbers.

Answered examples (5):
>>> df
                        binder     observed_property  measured
0  LCAAGAYYPWPLCF [Phage-1173]  Anti-CD28 Fab signal      1.28
1  LCSAGFLFQWSTCL [Phage-1133]  Anti-CD28 Fab signal      1.41
2  MCAAGAAWAWPLCL [Phage-1141]  Anti-CD28 Fab signal       1.4
3  WCSEVFSYPWPACL [Phage-1218]  Anti-CD28 Fab signal      0.99
4  SCAAGATYVWPMCF [Phage-1127]  Anti-CD28 Fab signal      1.42

Okay, here is my list. What is Anti-CD28 Fab signal for each of these?
1. TCSAGATYTWPVCF [Phage-1201]
2. TCAAGANYAWPVCL [Phage-1205]
3. LCAAGAHYSWPACF [Phage-1139]
4. LCEEFFHYSWPLCL [Phage-1190]
5. TCAAGANWPWPECL [Phage-1189]
6. TCSAGAHYPWPICL [Phage-1131]

Response:
1: 1.13; 2: 1.09; 3: 1.41; 4: 1.21; 5: 1.21; 6: 1.41

The values you see were collected from patent US20260274955A1.
